Sourced from ChEMBL document CHEMBL3272171

experiment: Retardation factor of the compound using 2.5% pyridine, 5% 1-butanol and 90% water at pH 4.7 buffer relative to lysine and alanine by ninhydrin spray
Bridge positions count the residues as written; N and C are the ends. Square brackets hold non-standard residues; d marks the D form. Peptide text beside a SMILES is read from it.
Readout name: Rf
Just the number, please, no unit after it.

Molecule	Rf
C[C@@H](O)[C@@H]1NC(=O)[C@H](Cc2ccccc2)NC(=O)[C@H]([C@@H](C)O)NC(=O)[C@H](CCCCN)NC(=O)[C@H](Cc2c[nH]c3ccccc23)NC(=O)[C@H](Cc2ccccc2)NC(=O)[C@H](Cc2ccccc2)NC(=O)[C@H](CC(N)=O)NC(=O)[C@H](CCCCN)NC(=O)[C@@H](NC(=O)CNC(=O)[C@@H](N)Cc2ccc(O)cc2)CSSC[C@@H](C(=O)O)NC(=O)[C@H](CO)NC1=O	0.33

Continue with the molecule presented below.
**Q:** State the recorded Rf for this entry: C[C@H](N)C(=O)NCC(=O)N[C@H]1CSSC[C@@H](C(=O)O)NC(=O)[C@H](CO)NC(=O)[C@H]([C@@H](C)O)NC(=O)[C@H](Cc2ccccc2)NC(=O)[C@H]([C@@H](C)O)NC(=O)[C@H](CCCCN)NC(=O)[C@@H](Cc2ccc(O)cc2)NC(=O)[C@H](Cc2ccccc2)NC(=O)[C@H](Cc2ccccc2)NC(=O)[C@H](CC(N)=O)NC(=O)[C@H](CCCCN)NC1=O (H-AGCKNFF[dY]KTFTSC-OH; disulfide 3-14)
**A:** 0.41

---

assay: Retardation factor of the compound using 2.5% pyridine, 5% 1-butanol and 90% water at pH 4.7 buffer relative to lysine and alanine by ninhydrin spray
Readout name: Rf
// print number alone

**Q:** Requested field: Rf. Item: `C[C@@H](O)[C@@H]1NC(=O)[C@H](Cc2ccccc2)NC(=O)[C@H]([C@@H](C)O)NC(=O)[C@H](CCCCN)NC(=O)[C@@H](Cc2c[nH]c3ccccc23)NC(=O)[C@H](Cc2ccccc2)NC(=O)[C@H](Cc2ccccc2)NC(=O)[C@H](CC(N)=O)NC(=O)[C@H](CCCCN)NC(=O)[C@@H](NC(=O)CNC(=O)[C@@H](N)Cc2ccc(O)cc2)CSSC[C@@H](C(=O)O)NC(=O)[C@H](CO)NC1=O`
**A:** 0.38

---

Rf by entry:
assay: Retardation factor of the compound using 2.5% pyridine, 5% 1-butanol and 90% water at pH 4.7 buffer relative to lysine and alanine by ninhydrin spray
Bridge positions count the residues as written; N and C are the ends. Peptide text beside a SMILES is read from it.
Write the value as a bare number.

These recorded examples may help you get a feel for the data.
Molecule	Numeric readout
C[C@H](N)C(=O)NCC(=O)N[C@H]1CSSC[C@@H](C(=O)O)NC(=O)[C@H](CO)NC(=O)[C@H]([C@@H](C)O)NC(=O)[C@H](Cc2ccccc2)NC(=O)[C@H]([C@@H](C)O)NC(=O)[C@H](CCCCN)NC(=O)[C@H](Cc2c[nH]c3ccccc23)NC(=O)[C@H](Cc2ccc(O)cc2)NC(=O)[C@H](Cc2ccccc2)NC(=O)[C@H](CC(N)=O)NC(=O)[C@H](CCCCN)NC1=O (H-AGCKNFYWKTFTSC-OH; disulfide 3-14)	0.44
C[C@H](N)C(=O)NCC(=O)N[C@H]1CSSC[C@@H](C(=O)O)NC(=O)[C@H](CO)NC(=O)[C@H]([C@@H](C)O)NC(=O)[C@H](Cc2ccccc2)NC(=O)[C@H]([C@@H](C)O)NC(=O)[C@H](CCCCN)NC(=O)[C@H](Cc2c[nH]c3ccccc23)NC(=O)[C@H](Cc2ccccc2)NC(=O)[C@H](Cc2ccc(O)cc2)NC(=O)[C@H](CC(N)=O)NC(=O)[C@H](CCCCN)NC1=O (H-AGCKNYFWKTFTSC-OH; disulfide 3-14)	0.38
C[C@H](N)C(=O)NCC(=O)N[C@H]1CSSC[C@@H](C(=O)O)NC(=O)[C@H](CO)NC(=O)[C@H]([C@@H](C)O)NC(=O)[C@H](Cc2ccc(O)cc2)NC(=O)[C@H]([C@@H](C)O)NC(=O)[C@H](CCCCN)NC(=O)[C@H](Cc2c[nH]c3ccccc23)NC(=O)[C@H](Cc2ccccc2)NC(=O)[C@H](Cc2ccccc2)NC(=O)[C@H](CC(N)=O)NC(=O)[C@H](CCCCN)NC1=O (H-AGCKNFFWKTYTSC-OH; disulfide 3-14)	0.45

**Q:** Please give the measured Rf for this molecule: `C[C@H](N)C(=O)NCC(=O)N[C@H]1CSSC[C@@H](C(=O)O)NC(=O)[C@H](CO)NC(=O)[C@H]([C@@H](C)O)NC(=O)[C@H](Cc2ccccc2)NC(=O)[C@H]([C@@H](C)O)NC(=O)[C@H](CCCCN)NC(=O)[C@H](Cc2c[nH]c3ccccc23)NC(=O)[C@H](Cc2ccccc2)NC(=O)[C@H](Cc2ccccc2)NC(=O)[C@H](CC(N)=O)NC(=O)[C@H](CCCCN)NC1=O`
**A:** 0.43
